- experimental_details: Volume of distribution at steady state in Rhesus monkey at 5 mg/kg, iv
- Type: ADME, organism-based, Macaca mulatta
- Parameters: dose 5 mg/kg, route intravenous
- cond: in vivo, read-out: Vdss
readout_type: Vd

(Q) Name the recorded Vd of the molecule listed here: CCS(=O)(=O)O.COC(=O)c1ccc2c(c1)NC(=O)/C2=C(\Nc1ccc(N(C)C(=O)CN2CCN(C)CC2)cc1)c1ccccc1 [NINTEDANIB ESYLATE]
(A) 10.4 L/kg

---

- experimental_details: Drug excretion in healthy male via biliary system into feces over 120 hrs
- Format: ADME, tissue-based
- cond: human, faeces, read-out: Drug excretion
readout_type: dose excreted at 120 h (%)
Give bare numbers, in %.

(Q) Name the recorded dose excreted at 120 h of the compound listed here: CCS(=O)(=O)O.COC(=O)c1ccc2c(c1)NC(=O)/C2=C(\Nc1ccc(N(C)C(=O)CN2CCN(C)CC2)cc1)c1ccccc1 [NINTEDANIB ESYLATE]
(A) 93.4

---

- experimental_details: Drug excretion in healthy male urine after 72 hrs
- Assay type: ADME, tissue-based
- cond: human, read-out: Drug excretion
readout_type: dose excreted at 72 h (%)
Numbers only, in %.

(Q) Name the recorded dose excreted at 72 h of the compound listed here: CCS(=O)(=O)O.COC(=O)c1ccc2c(c1)NC(=O)/C2=C(\Nc1ccc(N(C)C(=O)CN2CCN(C)CC2)cc1)c1ccccc1 [NINTEDANIB ESYLATE]
(A) 0.7

---

- experimental_details: Mean residence time in CD1 mouse at 50 mg/kg, po
- Format: ADME, organism-based
- Parameters: dose 50 mg/kg, route oral
- cond: in vivo
readout_type: MRT (h)
Numbers only, in h.

(Q) Name the recorded MRT of the molecule listed here: CCS(=O)(=O)O.COC(=O)c1ccc2c(c1)NC(=O)/C2=C(\Nc1ccc(N(C)C(=O)CN2CCN(C)CC2)cc1)c1ccccc1 [NINTEDANIB ESYLATE]
(A) 5.19

---

- experimental_details: Half life in CD1 mouse at 50 mg/kg, po
- Format: ADME, organism-based
- Design: dose 50 mg/kg, route oral
- cond: in vivo
readout_type: half-life (min)
Answers are plain numbers, in min.

(Q) Name the recorded half-life of the compound listed here: CCS(=O)(=O)O.COC(=O)c1ccc2c(c1)NC(=O)/C2=C(\Nc1ccc(N(C)C(=O)CN2CCN(C)CC2)cc1)c1ccccc1 [NINTEDANIB ESYLATE]
(A) 309

---

- experimental_details: Cmax in Cynomolgus monkey at 5 mg/kg, iv
- Assay type: ADME, organism-based, Macaca fascicularis
- Set-up: dose 5 mg/kg, route intravenous
- cond: in vivo
readout_type: Cmax (ng/mL)
Numbers only, in ng/mL.

(Q) Name the recorded Cmax of the compound listed here: CCS(=O)(=O)O.COC(=O)c1ccc2c(c1)NC(=O)/C2=C(\Nc1ccc(N(C)C(=O)CN2CCN(C)CC2)cc1)c1ccccc1 [NINTEDANIB ESYLATE]
(A) 1300

---

- experimental_details: clinical
- cond: male, human, in vivo
- Description: Terminal half life in healthy male
readout_type: half-life (h)
Numbers only, in h.

(Q) Name the recorded half-life of the compound listed here: CCS(=O)(=O)O.COC(=O)c1ccc2c(c1)NC(=O)/C2=C(\Nc1ccc(N(C)C(=O)CN2CCN(C)CC2)cc1)c1ccccc1 [NINTEDANIB ESYLATE]
(A) 13

---

- experimental_details: Oral bioavailability in Rhesus monkey at 40 mg/kg
- Assay type: ADME, organism-based, Macaca mulatta
- cond: in vivo
readout_type: bioavailability
Please answer in the form of a number followed by its unit of measurement.

(Q) Name the recorded bioavailability of the compound listed here: CCS(=O)(=O)O.COC(=O)c1ccc2c(c1)NC(=O)/C2=C(\Nc1ccc(N(C)C(=O)CN2CCN(C)CC2)cc1)c1ccccc1 [NINTEDANIB ESYLATE]
(A) 23.8%

---

- experimental_details: Cmax in cynomolgus monkey at 40 mg/kg, po
- Type: ADME, organism-based, Macaca fascicularis
- Parameters: dose 40 mg/kg, route oral
- cond: in vivo
readout_type: Cmax (ng/mL)
One number for each entry, in ng/mL.

(Q) Name the recorded Cmax of the molecule listed here: CCS(=O)(=O)O.COC(=O)c1ccc2c(c1)NC(=O)/C2=C(\Nc1ccc(N(C)C(=O)CN2CCN(C)CC2)cc1)c1ccccc1 [NINTEDANIB ESYLATE]
(A) 175

---

- experimental_details: Cmax in Rhesus monkey at 40 mg/kg, po
- Format: ADME, organism-based, Macaca mulatta
- Design: dose 40 mg/kg, route oral
- cond: in vivo
readout_type: Cmax (ng/mL)
Answers are plain numbers, in ng/mL.

(Q) Name the recorded Cmax of the compound listed here: CCS(=O)(=O)O.COC(=O)c1ccc2c(c1)NC(=O)/C2=C(\Nc1ccc(N(C)C(=O)CN2CCN(C)CC2)cc1)c1ccccc1 [NINTEDANIB ESYLATE]
(A) 311

---

- experimental_details: Cmax in CD1 mouse at 50 mg/kg, po
- Assay type: ADME, organism-based
- Parameters: dose 50 mg/kg, route oral
- cond: in vivo
readout_type: Cmax (ng/mL)
Give bare numbers, in ng/mL.

(Q) Name the recorded Cmax of the compound listed here: CCS(=O)(=O)O.COC(=O)c1ccc2c(c1)NC(=O)/C2=C(\Nc1ccc(N(C)C(=O)CN2CCN(C)CC2)cc1)c1ccccc1 [NINTEDANIB ESYLATE]
(A) 547

---

- experimental_details: AUC in Wistar rat at 50 mg/kg, po
- Assay type: ADME, organism-based
- Parameters: dose 50 mg/kg, route oral
- cond: plasma
readout_type: AUC (µg·h/mL)
One number for each entry, in µg·h/mL.

(Q) Name the recorded AUC of the molecule listed here: CCS(=O)(=O)O.COC(=O)c1ccc2c(c1)NC(=O)/C2=C(\Nc1ccc(N(C)C(=O)CN2CCN(C)CC2)cc1)c1ccccc1 [NINTEDANIB ESYLATE]
(A) 0.375

---

- experimental_details: Clearance in Rhesus monkey at 5 mg/kg, iv
- Format: ADME, organism-based, Macaca mulatta
- Set-up: dose 5 mg/kg, route intravenous
- cond: in vivo
readout_type: clearance (mL/min/kg)
Give bare numbers, in mL/min/kg.

(Q) Name the recorded clearance of the compound listed here: CCS(=O)(=O)O.COC(=O)c1ccc2c(c1)NC(=O)/C2=C(\Nc1ccc(N(C)C(=O)CN2CCN(C)CC2)cc1)c1ccccc1 [NINTEDANIB ESYLATE]
(A) 30.2

---

- experimental_details: AUC in Cynomolgus monkey at 40 mg/kg, po
- Type: ADME, organism-based, Macaca fascicularis
- Parameters: dose 40 mg/kg, route oral
- cond: plasma
readout_type: AUC (ng·h/mL)
Answers are plain numbers, in ng·h/mL.

(Q) Name the recorded AUC of the compound listed here: CCS(=O)(=O)O.COC(=O)c1ccc2c(c1)NC(=O)/C2=C(\Nc1ccc(N(C)C(=O)CN2CCN(C)CC2)cc1)c1ccccc1 [NINTEDANIB ESYLATE]
(A) 2390

---

- experimental_details: in vivo
- cond: rhesus monkey, iv, 5 mg/kg
- Description: Half life in Rhesus monkey at 5 mg/kg, iv
readout_type: half-life (h)
Answers are plain numbers, in h.

(Q) Name the recorded half-life of the compound listed here: CCS(=O)(=O)O.COC(=O)c1ccc2c(c1)NC(=O)/C2=C(\Nc1ccc(N(C)C(=O)CN2CCN(C)CC2)cc1)c1ccccc1 [NINTEDANIB ESYLATE]
(A) 7.09

---

- Tested on: Rattus norvegicus
- experimental_details: Mean residence time in Wistar rat at 2 mg/kg, iv
- Format: ADME, organism-based
- Set-up: dose 2 mg/kg, route intravenous
- cond: in vivo
readout_type: MRT (h)
Numbers only, in h.

(Q) Name the recorded MRT of the compound listed here: CCS(=O)(=O)O.COC(=O)c1ccc2c(c1)NC(=O)/C2=C(\Nc1ccc(N(C)C(=O)CN2CCN(C)CC2)cc1)c1ccccc1 [NINTEDANIB ESYLATE]
(A) 3.25

---

- experimental_details: Drug excretion in healthy male urine/feces after 96 hrs
- Type: ADME, tissue-based
- cond: human, urine and faeces, read-out: Drug excretion
readout_type: dose excreted at 96 h (%)
One number for each entry, in %.

(Q) Name the recorded dose excreted at 96 h of the compound listed here: CCS(=O)(=O)O.COC(=O)c1ccc2c(c1)NC(=O)/C2=C(\Nc1ccc(N(C)C(=O)CN2CCN(C)CC2)cc1)c1ccccc1 [NINTEDANIB ESYLATE]
(A) 92.4

---

- experimental_details: Oral bioavailability in Wistar rat at 50 mg/kg
- Format: ADME, organism-based
- cond: in vivo
readout_type: bioavailability (%)
Answers are plain numbers, in %.

(Q) Name the recorded bioavailability of the compound listed here: CCS(=O)(=O)O.COC(=O)c1ccc2c(c1)NC(=O)/C2=C(\Nc1ccc(N(C)C(=O)CN2CCN(C)CC2)cc1)c1ccccc1 [NINTEDANIB ESYLATE]
(A) 11.9
